TESTED_ON: acetylcholinesterase (AChE) (Electrophorus electricus, UniProt O42275)
Construct: The AChE was derived from the electric eel, while BChE was obtained from equineserum; from tissue; host or cells: electric eel (tissue not specified)
Sequence (O42275 24-633): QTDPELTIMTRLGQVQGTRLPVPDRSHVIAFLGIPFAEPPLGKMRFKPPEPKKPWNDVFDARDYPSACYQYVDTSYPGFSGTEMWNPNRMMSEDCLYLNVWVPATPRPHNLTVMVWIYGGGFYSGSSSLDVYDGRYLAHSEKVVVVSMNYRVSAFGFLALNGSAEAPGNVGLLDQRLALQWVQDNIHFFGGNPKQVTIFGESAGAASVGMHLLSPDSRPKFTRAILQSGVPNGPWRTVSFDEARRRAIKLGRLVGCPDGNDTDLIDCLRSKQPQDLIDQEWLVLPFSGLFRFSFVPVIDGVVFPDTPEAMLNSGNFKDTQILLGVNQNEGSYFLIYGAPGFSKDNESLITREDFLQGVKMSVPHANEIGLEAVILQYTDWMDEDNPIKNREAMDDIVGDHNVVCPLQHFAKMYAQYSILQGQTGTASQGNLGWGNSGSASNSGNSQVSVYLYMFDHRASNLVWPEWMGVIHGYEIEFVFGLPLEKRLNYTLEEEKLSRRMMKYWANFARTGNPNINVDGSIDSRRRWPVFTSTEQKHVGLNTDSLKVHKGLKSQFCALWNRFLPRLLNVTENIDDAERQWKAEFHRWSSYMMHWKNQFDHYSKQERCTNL
EXPERIMENT_NOTES: biochemical
CONDITION_SET: read-out: AChE Percent inhibition
A collection of molecules and their measured inhibition at 62.5 µg/mL
QUANTITY_MEASURED: inhibition at 62.5 µg/mL (%)

chemical_string=Cc1cccnc1NC(=S)Nc1ccccc1 test_value=38.7
chemical_string=S=C(Nc1ccccc1)Nc1cccc(Cl)c1 test_value=47.6
chemical_string=Cc1cccnc1NC(=S)NC1CCCCC1 test_value=29.7
chemical_string=Cc1ccc(NC(=S)NC2CCCCC2)c(C)c1 test_value=43.7
chemical_string=S=C(Nc1ccc(Cl)cc1)NC1CCCCC1 test_value=31.9
chemical_string=S=C(Nc1ccccn1)NC1CCCCC1 test_value=62.4
